protocol: Plasma protein binding in human incubated for 48 hrs
Format: ADME, cell-free
studyConditions: read-out: PPB (converted)
reportedMetric: fraction unbound at 48 h

Some entries whose results are on file:
[2H]C([2H])(O)C1(C([2H])([2H])O[C@]2(c3ccc(Cl)cc3)c3c(F)cc(C(C)(C)O)cc3C(=O)N2Cc2ccc(C#N)cn2)CC1    0.086
CC(C)(O)c1cc(F)c2c(c1)C(=O)N(Cc1ccc(Cl)cn1)[C@@]2(OCC1(C(N)=O)CC1)c1ccc(Cl)cc1    0.023
CC(C)(O)CCO[C@]1(c2ccc(Cl)cc2)c2ccc(C(C)(C)O)cc2C(=O)N1Cc1ccc(Cl)cc1    0.004
CC(C)(O)c1ccc2c(c1)C(=O)N(Cc1ccc(Cl)cc1)[C@@]2(OCC1(CO)CC1)c1ccc(Cl)cc1    0.002
[2H]C([2H])(O)C1(C([2H])([2H])O[C@]2(c3ccc(Cl)cc3)c3ccc(C(C)(C)O)cc3C(=O)N2Cc2ccc(Cl)cc2)CC1    0.003

P = [2H]C([2H])(O)C1(C([2H])([2H])O[C@]2(c3ccc(Cl)cc3)c3c(F)cc(C(C)(C)O)cc3C(=O)N2Cc2ccc(Cl)cn2)CC1
Q = CC(C)(O)c1cc(F)c2c(c1)C(=O)N(Cc1ccc(Cl)cn1)[C@@]2(OCC1(O)CC1)c1ccc(Cl)cc1
Could you point out whether the larger fraction unbound at 48 h belongs to P or to Q ? Answer format: the label of the selected item.
Q
